Hello, the source for this data is ChEMBL document CHEMBL1130132, in case you need it.

Experiment: Selectivity for nNOS and eNOS, ratio of Ki
Where a SMILES comes first, the peptide text is derived from it. [ ]: non-standard residue; d: D form. The star is where a group is joined. dArg(NO2) = N=C(NCCC[C@@H](N)C(=O)O)N[N+](=O)[O-]; Arg(NO2) = N=C(NCCC[C@H](N)C(=O)O)N[N+](=O)[O-]; OBn = c1ccc(CO*)cc1
Label scheme for Selectivity: lower than 4 is -1, 4 and above is 1.

These solved cases illustrate the format of a correct answer.
1. COC(=O)[C@@H](Cc1ccccc1)NC(=O)[C@@H](N)CCC/N=C(\N)N[N+](=O)[O-]	1
2. COC(=O)[C@@H](CCC/N=C(\N)N[N+](=O)[O-])NC(=O)[C@@H](N)Cc1ccccc1	-1
3. N/C(=N\CCC[C@H](NC(=O)[C@@H](N)Cc1ccccc1)C(=O)O)N[N+](=O)[O-] (H-Phe-[Arg(NO2)]-OH)	-1
4. COC(=O)[C@H](CCC/N=C(\N)N[N+](=O)[O-])NC(=O)[C@@H](N)Cc1ccccc1	-1
5. N/C(=N\CCC[C@@H](NC(=O)[C@H](N)Cc1ccccc1)C(=O)O)N[N+](=O)[O-] (H-[dF]-[dArg(NO2)]-OH)	1

Prompt: Determine whether measured Selectivity meets or exceeds 4 for N/C(=N\CCC[C@H](NC(=O)[C@@H](N)Cc1ccccc1)C(=O)OCc1ccccc1)N[N+](=O)[O-] (H-Phe-[Arg(NO2)]-OBn)
Response: -1

Prompt: Determine whether measured Selectivity meets or exceeds 4 for N/C(=N\CCC[C@H](N)C(=O)N[C@@H](Cc1ccccc1)C(=O)O)N[N+](=O)[O-]
Response: 1

Prompt: Determine whether measured Selectivity meets or exceeds 4 for COC(=O)[C@@H](Cc1ccccc1)NC(=O)[C@H](N)CCC/N=C(\N)N[N+](=O)[O-]
Response: -1

Prompt: Determine whether measured Selectivity meets or exceeds 4 for N/C(=N\CCC[C@H](N)C(=O)N[C@@H](Cc1ccccc1)C(=O)OCc1ccccc1)N[N+](=O)[O-]
Response: -1
